System: PfAP2-G AP2 domain (GST-tagged)
Assay: gcPBM binding intensity (ln(normalized median fluorescence intensity)); higher = stronger DNA binding
The full ranking holds about 25,000 sequences; the median of “ln(normalized median fluorescence intensity)” is about 10, and the highest 2% start at about 12. This is one part of a sample in which the highest values are shown more often than they occur.
I'd appreciate it if you could supply gcPBM binding intensity (ln) values for the items below.
Simply state the number, no unit and no words.

[ask] Looking for the measured gcPBM binding intensity (ln) of ATTCTTTTATTTAGTAGTACATTTGTATTTTATTCA [XGTACX_site5790] , can you help?
[reply] 11.5

[ask] Looking for the measured gcPBM binding intensity (ln) of TAATTTTCATATTTCTGTACATATATTATAAATATA [XGTACX_site3480] , can you help?
[reply] 11

[ask] Looking for the measured gcPBM binding intensity (ln) of CACAAAAGTAAGCACGCACACACAACATGAAATAAA [CACACA_site7938] , can you help?
[reply] 10.4

[ask] Looking for the measured gcPBM binding intensity (ln) of AATTATTTTAAATATTGTACTATTACAGAATGGTGT [XGTACX_site5693] , can you help?
[reply] 11

[ask] Looking for the measured gcPBM binding intensity (ln) of TGTTTTGTTTTTTGGGGTACATGTTTTGTATTATAT [XGTACX_site7997] , can you help?
[reply] 11.6

[ask] Looking for the measured gcPBM binding intensity (ln) of AATATATATTCATGTGTACACACAAAAAAAAATAAA [CACACA_site8690] , can you help?
[reply] 11.6
